Test: Solubility of the compound in fasted state simulated intestinal fluid
Type: ADME
Observation type: solubility

Give its solubility value. Item: "O=C(NCCCNc1nc2ccccc2[nH]1)c1cc(Cl)cc(Cl)c1"
> 100 µg/mL

---

Tested on: Plasmodium falciparum
Assay: Antimalarial activity against Plasmodium falciparum 3D7A infected in red blood cells assessed as inhibition of parasite growth after 24 hrs by [3H]hypoxanthine incorporation assay
Assay type: functional, organism-based
Measured IC50 values are reported for all entries that follow.

Worked set:
* O=C(NCCCNc1nc2ccccc2[nH]1)c1cc(Cl)c(O)c(Cl)c1 | > 5000 nM
* CN(CCCNc1nc2ccccc2[nH]1)C(=O)c1cc(Cl)cc(Cl)c1 | > 5000 nM
* O=C(NC1(c2nc3ccccc3[nH]2)CC1)c1cc(Cl)cc(Cl)c1 | > 5000 nM
* CC(C)(C)OC(=O)N1CCC(C(=O)NCCCNc2nc3ccccc3[nH]2)CC1 | 900 nM
* Cc1cccc(C(=O)NCCCNc2nc3ccccc3[nH]2)c1 | 970 nM
* O=C(NCCCCc1nc2ccccc2[nH]1)c1cc(Cl)cc(Cl)c1 | > 5000 nM
* O=C(NCCCNc1nc2ccccc2[nH]1)c1ccc(Cl)cc1 | 1080 nM
* Cc1ccc(C(=O)NCCCNc2nc3ccccc3[nH]2)s1 | 1830 nM

Consider the compound "O=C(NCCCNc1nc2c(F)cccc2[nH]1)c1cc(Cl)cc(Cl)c1" and give its measured IC50.
300 nM

Reported IC50 for "O=C(O)c1ccc2[nH]c(NCCCNC(=O)c3cc(Cl)cc(Cl)c3)nc2c1" : what is it?
> 5000 nM

Name the recorded IC50 for "O=C(NCCCNc1nc2ccccc2[nH]1)c1ccnc(C(F)(F)F)c1" .
250 nM

---

Test: Selectivity index, ratio of TC50 for human HepG2 cells to IC50 for Plasmodium falciparum 3D7A
Type: toxicity, cell-based
Details: read-out: Selectivity Index
Observation type: selectivity ratio
When you answer, write just the number.

Report selectivity ratio for "O=C(Nc1cccc(-c2nc3ccccc3[nH]2)c1)c1cc(Cl)cc(Cl)c1" please.
17.3

---

IC50 data for UniProtKB Q12809 follow.
Sequence (Q12809 whole entry): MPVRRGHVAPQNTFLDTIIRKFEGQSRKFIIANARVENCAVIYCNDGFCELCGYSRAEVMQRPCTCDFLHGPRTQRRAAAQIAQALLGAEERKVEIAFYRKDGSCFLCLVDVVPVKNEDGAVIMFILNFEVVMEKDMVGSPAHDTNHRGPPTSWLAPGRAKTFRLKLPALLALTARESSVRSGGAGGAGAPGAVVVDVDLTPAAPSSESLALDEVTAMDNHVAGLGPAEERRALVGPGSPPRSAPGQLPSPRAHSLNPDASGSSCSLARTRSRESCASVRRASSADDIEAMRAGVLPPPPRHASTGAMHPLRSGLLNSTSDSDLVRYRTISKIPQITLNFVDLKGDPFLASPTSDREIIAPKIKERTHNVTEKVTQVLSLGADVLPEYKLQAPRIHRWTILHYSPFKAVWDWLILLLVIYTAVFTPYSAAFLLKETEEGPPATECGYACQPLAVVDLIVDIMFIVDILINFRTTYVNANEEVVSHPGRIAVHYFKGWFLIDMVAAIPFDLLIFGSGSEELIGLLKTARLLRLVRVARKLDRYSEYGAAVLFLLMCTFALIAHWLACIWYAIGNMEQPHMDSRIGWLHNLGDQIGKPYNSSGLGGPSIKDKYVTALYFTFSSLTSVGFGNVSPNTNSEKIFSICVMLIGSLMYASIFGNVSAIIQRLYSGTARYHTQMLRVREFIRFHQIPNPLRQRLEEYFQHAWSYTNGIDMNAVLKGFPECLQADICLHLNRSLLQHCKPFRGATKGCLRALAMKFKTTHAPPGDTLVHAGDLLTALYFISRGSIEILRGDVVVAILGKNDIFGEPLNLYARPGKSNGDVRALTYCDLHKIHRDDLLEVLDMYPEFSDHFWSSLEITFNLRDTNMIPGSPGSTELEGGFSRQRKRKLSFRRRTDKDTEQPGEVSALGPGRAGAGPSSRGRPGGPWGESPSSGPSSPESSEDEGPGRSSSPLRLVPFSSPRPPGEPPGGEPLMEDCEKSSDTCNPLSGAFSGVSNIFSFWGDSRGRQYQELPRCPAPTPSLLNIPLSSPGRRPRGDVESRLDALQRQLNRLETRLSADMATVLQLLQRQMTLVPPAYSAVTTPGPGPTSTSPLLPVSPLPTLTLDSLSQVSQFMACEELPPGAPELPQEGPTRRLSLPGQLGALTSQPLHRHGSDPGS

* CC(C)(C)OC(=O)N1CCC(C(=O)NCCCNc2nc3ccccc3[nH]2)CC1 | > 50.1 µM

UniProtKB Q12809 / IC50 / "O=C(Nc1cccc(-c2nc3ccccc3[nH]2)c1)c1cc(Cl)cc(Cl)c1" : value?
> 14.8 µM

---

Assay: Cytotoxicity against human HepG2 cells by ATP bioluminescene method
Format: cell-based
Conditions: read-out: TC50 (the source's name)
Observation type: CC50 (µM)
Enter your answer as a number in µM; do not include the unit.

Suppose we examine the compound "COC(=O)c1ccc2[nH]c(NCCCNC(=O)c3cc(Cl)cc(Cl)c3)nc2c1" ; what CC50 value has been reported?
25.7

Can you share its CC50? I mean this compound: "O=C(Nc1cccc(-c2nc3ccccc3[nH]2)c1)c1cc(Cl)cc(Cl)c1"
26.3

Data request, read-out CC50, for "O=C(NCCCNc1nc2ccccc2[nH]1)c1cc(Cl)cc(Cl)c1"
36.3

---

Assay: Clearance in CD1 mouse at 1 mg/kg, iv by LC-MS/MS analysis
Type: ADME, organism-based
Details: in vivo
Observation type: clearance (mL/min/kg)
Quick reminder: number only, in mL/min/kg, skip the unit.

Any idea what its clearance is? The molecule is "O=C(NCCCNc1nc2ccccc2[nH]1)c1cc(Cl)cc(Cl)c1"
39.7
